Target: SRPK1 (human) (UniProt Q96SB4)
Sequence (Q96SB4 whole entry, looked up): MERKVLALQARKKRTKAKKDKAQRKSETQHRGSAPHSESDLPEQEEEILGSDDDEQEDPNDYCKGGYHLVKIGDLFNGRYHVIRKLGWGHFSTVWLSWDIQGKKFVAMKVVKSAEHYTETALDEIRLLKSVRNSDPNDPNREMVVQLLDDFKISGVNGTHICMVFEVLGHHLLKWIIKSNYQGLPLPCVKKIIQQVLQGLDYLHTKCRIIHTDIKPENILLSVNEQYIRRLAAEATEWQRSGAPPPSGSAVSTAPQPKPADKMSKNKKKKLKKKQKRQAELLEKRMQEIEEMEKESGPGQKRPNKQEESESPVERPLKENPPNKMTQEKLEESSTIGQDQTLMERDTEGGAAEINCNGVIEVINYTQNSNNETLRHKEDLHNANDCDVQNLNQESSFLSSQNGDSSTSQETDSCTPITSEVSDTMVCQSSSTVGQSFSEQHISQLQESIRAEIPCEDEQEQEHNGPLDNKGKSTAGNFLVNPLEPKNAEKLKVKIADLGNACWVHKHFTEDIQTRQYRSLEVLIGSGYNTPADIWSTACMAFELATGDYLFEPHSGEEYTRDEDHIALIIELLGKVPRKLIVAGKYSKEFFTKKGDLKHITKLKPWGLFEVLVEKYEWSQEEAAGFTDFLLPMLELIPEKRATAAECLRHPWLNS
Assay: radiometric filter-binding kinase assay
Conditions: compound 10.0 µM
Metric: residual activity

## Input Requested read-out: residual activity. Entry: O=C1Nc2nc(-c3c(O)cccc3OCC3CC3)cc(C3CCCNC3)c2CO1 (stereo unspecified)
## Output 65%

---

Overview of recorded residual activity for various compounds
Target: MARK1 (human)
Assay: radiometric filter-binding kinase assay
Settings: compound 10.0 µM
Response body: numeric value in %, unit text excluded.

For orientation, consider the following solved cases.
Compound	residual activity [%]
O=C(Nc1ccccc1-c1cn2c(CN3CCNCC3)csc2n1)c1cnc2ccccc2n1	74
COc1cc2ncn(-c3cc(OCc4ccccc4S(C)(=O)=O)c(C#N)s3)c2cc1OC	31
NC1(c2ccc(-c3nc4ccn5c(=O)[nH]nc5c4cc3-c3ccccc3)cc2)CCC1	98
CC(C)C[C@H](NC(=O)CNC(=O)c1cc(Cl)ccc1Cl)B1OC(=O)CC(CC(=O)O)(C(=O)O)O1 (stereo not given in full)	81

Now, please, on to the next compound.
## Input Requested read-out: residual activity. Entry: O=c1c(O)c(-c2ccc(O)c(O)c2)oc2cc(O)c(O)c(O)c12
## Output 11
